Measured growth by item
Tested on: SW-620 colon
Test: NCI-60 one-dose screen, 48 h (100 = growth as untreated, 0 = no growth, -100 = all killed)
Settings: 10 µM unless noted
This is part of a sample that, as a whole, favours compounds with a hit. Of some 83,000 tested, about 20% had one in any assay.
measurement-name: growth (%)

molecule: c1ccc(CO[C@H]2CO[C@H]3[C@@H]2OC[C@@H]3Oc2ccc(Nc3ncnc4ccsc34)cc2)cc1
reading-unit: %
number: 87.6
//
molecule: CN(C)CCS(=O)(=O)Nc1cc(-c2ccc3ncc(C#N)c(Nc4ccc(F)c(Cl)c4)c3c2)cnc1Cl
reading-unit: %
number: -11.1
//
molecule: O=C1c2cccc3cccc(c23)C(=O)N1Nc1nc(NC2CCCCC2)nc(N2CCOCC2)n1
reading-unit: %
number: 98.1
//
molecule: CCCCCCN1C(=O)/C(=c2\sc3n(c2=O)C2C(NN=3)N(CC)C(=O)N2CC)c2ccccc21 (centres undefined)
reading-unit: %
number: -38.3
//
molecule: COc1cc(C(=O)/C=C/c2sc(Cl)nc2Cl)cc(OC)c1OC
reading-unit: %
number: -61
//
molecule: CN1C(=O)CNC(=O)[C@H](NC(=O)c2nc3ccccc3cc2O)CSSC[C@H]1C(=O)NCCc1nc2ccccc2cc1O
reading-unit: %
number: 34
//
molecule: COc1ccc(CN2c3ccccc3Sc3ccccc32)c(F)c1
reading-unit: %
number: 10.3
//
molecule: FC(F)(F)c1cc(Nc2ccc3c(OCCCN4CCOCC4)cccc3n2)ccc1Cl
reading-unit: %
number: 1.47
//
molecule: CCOC(=O)c1cn2ncnc(Oc3ccc(NC(=O)NCCN4CCN(C)CC4)c(Cl)c3)c2c1C
reading-unit: %
number: 69
//
molecule: CNCCCNc1nc2ccccc2c2c(=O)c3cc(F)ccc3sc12
reading-unit: %
number: -71.4
//
molecule: N#CC1=C(N)Oc2c(sc3c(Br)cccc23)C1c1ccc(Br)cc1 (centres undefined)
reading-unit: %
number: 24.4
//
molecule: COc1ccc2cc(C(C)C(=O)Nc3ccc(-c4n[nH]c(=S)n4C4CCCCC4)cc3)ccc2c1 (centres undefined)
reading-unit: %
number: 92.2
//
molecule: COc1cc2cc(Oc3ccc(NC(=O)Nc4cc(C(F)(F)F)cc(C(F)(F)F)c4)cc3)c(C)nc2cc1OCCN1CCOCC1
reading-unit: %
number: 20.3
//
molecule: Cc1ccc2sc3c(NCCCN)nc4ccccc4c3c(=O)c2c1
reading-unit: %
number: -79.7
